- Test system: SNB-19 CNS
- TEST DETAILS: NCI tumour cell line growth inhibition, 48 h
READOUT KIND: TGI

MOLECULE | READOUT KIND | RESULT
Nc1c2c(nc3ccccc13)-c1ccccc1CCC2 | TGI | 55.4 µM
COc1c2c(cc3oc(=O)ccc13)OC(C)(C)C=C2 | TGI | > 125 µM
COC(=O)[C@@]12CC3CN(Cc4c1[nH]c1ccccc41)C2CC3=O | TGI | > 100 µM
O=C1CCCn2c3ccccc3c3ccnc1c32 | TGI | > 100 µM
Clc1cc(Cl)c2n[se]nc2c1 | TGI | > 100 µM

Just so you know, measured TGI for `CN1CCN(c2nc(NCCNc3ccnc4cc(Cl)ccc34)c3ccccc3n2)CC1` came out at 15.2 µM

Entry NC(=O)c1ncn(C2CCC(CP(=O)(O)O)C2)c1N (configuration not stated) , TGI reported as > 100 µM

###

- System: TK-10 renal
- TEST DETAILS: NCI tumour cell line growth inhibition, 48 h
The following compounds are shown together with reported TGI values.

COMPOUND | EXPERIMENTAL SYSTEM | READOUT KIND | RESULT
Cc1cc(C)c2c(=O)n(CC(O)CN3CCN(c4ncccn4)CC3)sc2n1 (stereo not drawn) | TK-10 renal | TGI | 32.1 µM
COc1ccc(-c2ccc(/C=N/n3cnn(CN4CCN(C)CC4)c3=S)o2)c([N+](=O)[O-])c1 | TK-10 renal | TGI | > 100 µM

Item: `CC(C)=CCC[C@@H](C)c1c(O)c(O)c(C)c2nc3ccccc3nc12` | TGI: 17 µM

Per the records, this compound ( `CO/C=C(/C(=O)OC)c1ccccc1[C@H]1C[C@@H]1c1ccc(OC)cc1` ) has TGI equal to > 100 µM

Record summary for COc1cc2c3c(c1OC)C1(C=CC(=O)C=C1)CC3N(C(=O)OC(C)(C)C(Cl)(Cl)Cl)CC2 (stereo not drawn) : reported TGI = > 100 µM

response.value for `CN(C)c1ccc(C(=C2C=CC(=[N+](C)C)C=C2)c2c(O)c(S(=O)(=O)[O-])cc3cc(S(=O)(=O)O)ccc23)cc1` (field: TGI) = > 100 µM

For `NS(=O)(=O)OC[C@H]1O[C@@H](n2cnc3c(N[C@H]4CCc5ccccc54)ncnc32)[C@H](O)[C@@H]1O` the compound record lists TGI as 3.24 µM

Measured TGI, CC(CC(C)[C@H]1CCC2[C@H]3C(CC[C@@]21C)[C@@]1(C)CCC(O)C[C@H]1C[C@@H]3O)C(=O)O (stereo partly drawn) : > 100 µM

###

- Test system: A549 NSCLC
- TEST DETAILS: NCI tumour cell line growth inhibition, 48 h
READOUT KIND: TGI

Answered examples (2):
MOLECULE | RESULT
COc1cc2[nH]c(=O)[nH]c2c2c(C)c[nH]c12 | > 100 µM
CCOC(=O)C(C(N)=O)c1nc2cc([N+](=O)[O-])ccc2nc1/C=C(\O)c1ccc(C)cc1 (stereo not given) | > 74.1 µM

Record CC(=O)OC1CC[C@@]2(C)C(CC(OC3OC(CO)C(O)C(O)C3O)[C@]3(C)C2CCC24CC23CC[C@H]4C(C)CC(O)[C@@H](O)C(C)(C)O)C1(C)C (stereo not given in full) / A549 NSCLC, TGI recorded as > 50 µM

// TGI (A549 NSCLC) for `CSc1nc(NC2CC2)c2c(n1)Sc1nc3ccccc3n1N=C2` = 97 µM

Case `Cc1cc(S(=O)(=O)Nc2nc(N)n(-c3ccccc3)n2)c(S)cc1Cl` , A549 NSCLC, TGI recorded as > 100 µM

Field TGI (system: A549 NSCLC) for entry `CC(C)=CCC[C@@H](C)c1c(O)c(O)c(C)c2nc3ccccc3nc12` = 9.15 µM

Tested system A549 NSCLC; TGI recorded for Nc1ncnc2c1ncn2C1OC(CO)C(O)C1O (stereo not given) was > 388 µM

TGI for A549 NSCLC with input `O=C1/C(=C/c2ccc(F)cc2)CN(Cc2cn(CCNc3ccnc4cc(Cl)ccc34)nn2)C/C1=C\c1ccc(F)cc1` equals 4.23 µM

Item: COC(=O)c1ccc2c(c1)CC1(C2)Cc2ccc3c(c2C1)CCC3 (stereo not given) | System: A549 NSCLC | TGI: > 100 µM

Reported A549 NSCLC TGI for item `O=C(O)C(=O)/C=C\c1ccc(Cl)cc1` was > 100 µM
